system: HL-60; test: Cytotoxicity against human HL60 cells assessed as cell viability after 72 hrs by MTT assay; assay type: functional, cell-based; settings: HL-60, 72 h
Exercise: state measured pIC50 for each of the compounds provided.
// pIC50 is dimensionless: -log10 of concentration (M)

**Query** For the compound CC1(C)CC(Nc2ccc([N+](=O)[O-])cc2)C2=C(O1)C(=O)c1ccccc1C2=O (centres undefined) , give its reported pIC50.
**Result** 5.37

**Query** Hello, please tell me recorded pIC50 for this one: CC1(C)CC(Nc2ccc(I)cc2)C2=C(O1)C(=O)c1ccccc1C2=O (centres undefined)
**Result** 5.16

**Query** Return pIC50 (reported value) for this compound: CC1(C)CC(Nc2cccc(Br)c2)C2=C(O1)C(=O)c1ccccc1C2=O (centres undefined)
**Result** 5.12

**Query** Specify measured pIC50 for O=C1C=C(NCc2cn(C3=CC(=O)c4ccccc4C3=O)nn2)C(=O)c2ccccc21 .
**Result** 6.10

**Query** Output pIC50 of CC1(C)OC2=C(C(=O)c3ccccc3C2=O)C1n1cc(-c2ccccc2)nn1 (centres undefined)
**Result** 5.36

**Query** Fill in pIC50 for record CC1(C)OC2=C(C(=O)c3ccccc3C2=O)C1n1cc(C2CCCCC2)nn1 (centres undefined)
**Result** 5.57

**Query** Item O=C1C=C(n2cc(CNC3=C(Cl)C(=O)c4ccccc4C3=O)nn2)C(=O)c2ccccc21 : provide pIC50
**Result** 5.47
